Each recorded value in this set is attributed to patent US6169181A.

target: HIV-1 protease (Human immunodeficiency virus type 1 group M subtype B); assay: biochemical; conditions: Table I; Dose 30.000 μM; read-out: Protease % Inhib
measured-property: inhibition at 30 µM (%)
Number in %, nothing else.

Field request: inhibition at 30 µM | item: O=c1oc2c(c(O)c1C(c1cccc(CS(=O)(=O)c3ccc(F)cc3)c1)C1CC1)CCCCCC2 (stereo not drawn) 95.7

Name the recorded inhibition at 30 µM for CC(C)(C)C(C1=C(O)CC(CCC2CC2)(CCC2CC2)OC1=O)c1cccc(NS(=O)(=O)c2ccc(C#N)cn2)c1 (stereo not drawn) . 85.6

Quick one: inhibition at 30 µM for CCCC1(CCc2ccccc2)CC(O)=C(C(c2cccc(NS(=O)(=O)c3ccc(F)cc3)c2)C2CC2)C(=O)O1 (stereo not drawn) ? 102

Could you tell me which inhibition at 30 µM is on file for CCCC1(CCC)CC(O)=C(C(CC)c2cccc(NS(=O)(=O)c3ccc(C#N)cc3)c2)C(=O)O1 (stereo not drawn) ? 74.1

So what's the measured inhibition at 30 µM for this one? CC[C@H](Cc1ccccc1)c1cc(O)c(C(c2cccc(NS(=O)(=O)c3cn(C)cn3)c2)C2CC2)c(=O)o1 (single isomer, unassigned) [Example 138] 105

Need inhibition at 30 µM, item Cn1cnc(S(=O)(=O)Nc2cccc(C(C3=C(O)CC(CCC4CC4)(CCC4CC4)OC3=O)C(C)(C)C)c2)c1 (stereo not drawn) 64.6

---

Exercise: state measured PROTEASE % INHIB. for each of the compounds provided.
target: HIV-1 protease (Human immunodeficiency virus type 1 group M subtype B, UniProt P04585); assay: biochemical; settings: Table I; Dose 30.000 μM
# value in %; strip the unit string

What measured PROTEASE % INHIB. is associated with CC[C@H](Cc1ccccc1)c1cc(O)c(C(c2cccc(NS(=O)(=O)c3ccc(C#N)cc3)c2)C2CC2)c(=O)o1 (single isomer, unassigned) [Example 149] on HIV-1 protease (Human immunodeficiency virus type 1 group M subtype B, UniProt P04585)? 95.99

Can you look up PROTEASE % INHIB. on HIV-1 protease (Human immunodeficiency virus type 1 group M subtype B, UniProt P04585) for CC[C@H](Cc1ccccc1)c1cc(O)c(C(c2cccc(NS(=O)(=O)c3nccn3C)c2)C2CC2)c(=O)o1 (single isomer, unassigned) [Example 144] ? 95.88

Under HIV-1 protease (Human immunodeficiency virus type 1 group M subtype B, UniProt P04585): PROTEASE % INHIB. value of CC[C@@H](Cc1ccccc1)c1cc(O)c(C(c2cccc(NS(=O)(=O)c3cn(C)cn3)c2)C2CC2)c(=O)o1 (single isomer, unassigned) [Example 140] ? 119.14

---

Assignment: determine reported inhibition at 0.123 µM for the given molecules.
target: HIV-1 protease (Human immunodeficiency virus type 1 group M subtype B, UniProt P04585); experiment: biochemical; settings: Table I; Dose 0.123 μM; read-out: Protease % Inhib
Value expressed in %; do not type the unit.

Please report the recorded inhibition at 0.123 µM for CCC(CCBr)c1cc(O)c(C(c2cccc(NS(=O)(=O)c3cn(C)cn3)c2)C2CC2)c(=O)o1 (stereo not drawn) [Example 108] . 103

Fill in the blank: the reported inhibition at 0.123 µM of CCC(CCNS(=O)(=O)c1cn(C)cn1)c1cc(O)c(C(c2cccc(NS(=O)(=O)c3cn(C)cn3)c2)C2CC2)c(=O)o1 (stereo not drawn) [Example 107] is ____. 92.7

# get_value(readout='inhibition at 0.123 µM', item= CCCC1(CCC)CC(O)=C(C(CC)c2cccc(NS(=O)(=O)c3ccc(C#N)cn3)c2)C(=O)O1 (stereo not drawn) [Example 262] ) 91.8

---

biological target: HIV-1 protease (Human immunodeficiency virus type 1 group M subtype B, UniProt P04585); experiment: biochemical; conditions: Table II; enzyme HIV-1; DOSE 10.000 (unit not given)
Record form. Attribute: PROTEASE % INHIB.. Fill in for each entry.
A number alone suffices; assume %.

Quick one: PROTEASE % INHIB. for CCCC1(CCc2ccccc2)CC(O)=C(C(c2cccc(NS(=O)(=O)c3ccccn3)c2)C(C)(C)C)C(=O)O1 (single isomer, unassigned) ? 93.32

Endpoint output: PROTEASE % INHIB. of CCCC1(CCC)CC(O)=C(C(c2cccc(NS(=O)(=O)c3cn(C)cn3)c2)C(C)(C)C)C(=O)O1 (single isomer, unassigned) [Example 319] . Value? 93.46

Name the reported PROTEASE % INHIB. value associated with the molecule CCC[C@]1(CCc2ccc(F)cc2)CC(O)=C([C@H](c2cccc(NS(=O)(=O)c3ccc(C#N)cn3)c2)C(C)(C)C)C(=O)O1 (single isomer, unassigned) 96.28

Dear colleague, I am looking for the recorded PROTEASE % INHIB. of the following molecule: CCCC1(CCc2ccc(F)cc2)CC(O)=C(C(CC)c2cccc(NS(=O)(=O)c3ccc(C(N)=O)cn3)c2)C(=O)O1 (stereo not shown) 91.68

Entry CCCC1(CCc2ccc(F)cc2)CC(O)=C(C(c2cccc(NS(=O)(=O)c3ccc(C#N)cc3)c2)C(C)(C)C)C(=O)O1 (stereo not shown) : reported PROTEASE % INHIB. = ? 96.78

Entry CC(C)(C)C(C1=C(O)CC(CCc2ccccc2)(CCc2ccccc2)OC1=O)c1cccc(NS(=O)(=O)c2ccc(N)cn2)c1 (single isomer, unassigned) [Example 356] : reported PROTEASE % INHIB. = ? 100.22

Value lookup for PROTEASE % INHIB.; key = `Nc1ccc(S(=O)(=O)Nc2cccc(CC3=C(O)CC(CCc4ccccc4)(CCc4ccccc4)OC3=O)c2)nc1` 54.97

---

biological target: UniProt P04585; assay: biochemical; conditions: Table I; Dose 3.300 μM; read-out: Protease % Inhib
Assign inhibition at 3.3 µM to each entry below.
Give just the numeric value; % need not be written.

Return reported inhibition at 3.3 µM; argument: CC[C@H](Cc1ccccc1)c1cc(O)c(C(c2cccc(NS(=O)(=O)c3ncc[nH]3)c2)C2CC2)c(=O)o1 (stereo partly shown) 110

Looking for the measured inhibition at 3.3 µM of CC[C@H](Cc1ccccc1)c1cc(O)c(C(c2cccc(NS(=O)(=O)c3nccn3C)c2)C2CC2)c(=O)o1 (single isomer, unassigned) , can you help? 102

Record request: inhibition at 3.3 µM value, item CCCC1(CCC)CC(O)=C(C(CC)c2cccc(NS(=O)(=O)c3cccc4cccnc34)c2)C(=O)O1 (single isomer, unassigned) [Example 52] 97.4

Given CN(c1cccc(C(c2c(O)c3c(oc2=O)CCCCCC3)C2CC2)c1)S(=O)(=O)c1ccccc1 (stereo not shown) , state its recorded inhibition at 3.3 µM. 75.2

What inhibition at 3.3 µM value was documented for this compound, COCCOCCCc1cc(O)c(C(c2cccc(NS(=O)(=O)c3cn(C)cn3)c2)C2CC2)c(=O)o1 (stereo not shown) ? 93.3

Look up inhibition at 3.3 µM: Cn1ccnc1S(=O)(=O)Nc1cccc(C(c2c(O)cc(C(CC3CC3)CC3CC3)oc2=O)C2CC2)c1 (stereo not shown) 96.5

What inhibition at 3.3 µM value was documented for this compound, O=c1oc(C(CC2CC2)CC2CC2)cc(O)c1C(c1cccc(NS(=O)(=O)c2ncc[nH]2)c1)C1CC1 (stereo not shown) ? 110

---

Give inhibition at 10 µM for every item shown.
biological target: HIV-1 protease (Human immunodeficiency virus type 1 group M subtype B, UniProt P04585); test: biochemical; conditions: Table I; Dose 10.000 μM; read-out: Protease % Inhib
Report only the number, with the unit % understood.

Please look up its inhibition at 10 µM: O=c1oc2c(c(O)c1C(c1cccc(CS(=O)(=O)c3ccc(F)cc3)c1)C1CC1)CCCCCC2 (stereo not shown) 94.7

Recorded inhibition at 10 µM for CCCC1(CCC)CC(O)=C(C(c2cccc(NS(=O)(=O)c3cccc4cccnc34)c2)C2CC2)C(=O)O1 (stereo not shown) , please? 108

// returns reported inhibition at 10 µM for input O=c1oc2c(c(O)c1C(c1cccc(NS(=O)(=O)c3ccccn3)c1)C1CC1)CCCCCC2 (stereo not shown) 103

Quick one: inhibition at 10 µM of CCCC1(CCc2ccccc2)CC(O)=C(C(c2cccc(NS(=O)(=O)c3ccc(F)cc3)c2)C2CC2)C(=O)O1 (stereo not shown) ? 105

Entry under review: CC[C@H](Cc1ccccc1)c1cc(O)c(C(c2cccc(NS(=O)(=O)c3ccc(C#N)cc3)c2)C2CC2)c(=O)o1 (single isomer, unassigned) . Reported inhibition at 10 µM? 99.2

Entry under review: CC[C@H](Cc1ccccc1)c1cc(O)c(C(c2cccc(NS(=O)(=O)c3nccn3C)c2)C2CC2)c(=O)o1 (single isomer, unassigned) . Reported inhibition at 10 µM? 101

I'd like to know its inhibition at 10 µM. The compound in question is CCC(CC1CCCOC1)c1cc(O)c(C(c2cccc(NS(=O)(=O)c3cccc4cccnc34)c2)C2CC2)c(=O)o1 (stereo not shown) [Example 145A] 113

What value of measured inhibition at 10 µM is listed for CCCC1(CCc2ccccc2)CC(O)=C(C(c2cccc(NS(=O)(=O)c3cn(C)cn3)c2)C2CC2)C(=O)O1 (stereo not shown) ? 106

Need inhibition at 10 µM, item O=C(O)c1ccc(S(=O)(=O)Cc2cccc(C(c3c(O)c4c(oc3=O)CCCCCC4)C3CC3)c2)cc1 (stereo not shown) 102

For the compound shown here, CCC(CC1CCOCC1)c1cc(O)c(C(c2cccc(NS(=O)(=O)c3cn(C)cn3)c2)C2CC2)c(=O)o1 (stereo not shown) , give the reported inhibition at 10 µM. 101

Any idea what its inhibition at 10 µM is? The compound is CCC(CCOCCOC)c1cc(O)c(C(c2cccc(NS(=O)(=O)c3ccc(C#N)cc3)c2)C2CC2)c(=O)o1 (stereo not shown) 99

Dear colleague, I am looking for the recorded inhibition at 10 µM of the following compound: CCC(C1=C(O)CC(CC(C)C)(CC(C)C)OC1=O)c1cccc(NS(=O)(=O)c2cn(C)cn2)c1 (stereo not shown) 98.7

Please look up its inhibition at 10 µM: COCCOCCOCCOc1ccc2c(O)c(C(c3cccc(NS(=O)(=O)c4cccc5cccnc45)c3)C3CC3)c(=O)oc2c1 (stereo not shown) 103

Quick one: inhibition at 10 µM for CCCC1(CCC)CC(O)=C(C(c2cccc(NS(=O)(=O)c3ccc(C#N)cc3)c2)C2CC2)C(=O)O1 (stereo not shown) ? 101

Form field: reported inhibition at 10 µM of CN(c1cccc(C(c2c(O)c3c(oc2=O)CCCCCC3)C2CC2)c1)S(=O)(=O)c1ccc(F)cc1 (stereo not shown) 108

Which value of inhibition at 10 µM has been reported for O=c1oc(C(CC2CC2)CC2CC2)cc(O)c1C(c1cccc(NS(=O)(=O)c2ccccn2)c1)C1CC1 (stereo not shown) in the records? 107

inhibition at 10 µM for CCCC1(CCc2ccc(F)cc2)CC(O)=C(C(c2cccc(NS(=O)(=O)c3cn(C)cn3)c2)C(C)(C)C)C(=O)O1 (stereo not shown) ? 96.2

What inhibition at 10 µM value was documented for this compound, O=c1oc(C(CC2CC2)CC2CC2)cc(O)c1C(c1cccc(NS(=O)(=O)c2ccc3ccccc3n2)c1)C1CC1 (stereo not shown) ? 105

Find the recorded inhibition at 10 µM belonging to CCCC1(CCC)CC(O)=C(C(CC)c2cccc(NS(=O)(=O)c3ccc(F)cc3)c2)C(=O)O1 (stereo not shown) and report it. 89.8

inhibition at 10 µM for CN(c1cccc(C(c2c(O)c3c(oc2=O)CCCCCC3)C2CC2)c1)S(=O)(=O)c1ccc(C#N)cc1 (stereo not shown) ? 103

Report inhibition at 10 µM for CCCC1(CCC)CC(O)=C(C(CC)c2cccc(NS(=O)(=O)c3ccc(C#N)cn3)c2)C(=O)O1 (stereo not shown) please. 94.2

inhibition at 10 µM lookup needed for O=c1oc(C(CC2CC2)CC2CC2)cc(O)c1C(c1cccc(NS(=O)(=O)c2ncc[nH]2)c1)C1CC1 (stereo not shown) , thanks. 117

Bench note: what inhibition at 10 µM did Cn1cnc(S(=O)(=O)Nc2cccc(C(C3=C(O)CC(CCc4ccccc4)(CCc4ccccc4)OC3=O)C3CC3)c2)c1 (stereo not shown) show? 79.7

What does the data say about its inhibition at 10 µM? Entry: CC[C@H](Cc1ccccc1)c1cc(O)c(C(c2cccc(NS(=O)(=O)c3ncc[nH]3)c2)C2CC2)c(=O)o1 (stereo partly shown) 114

Name the recorded inhibition at 10 µM for CCC(Cc1ccccc1)c1cc(O)c(C(c2cccc(NS(=O)(=O)c3cn(C)cn3)c2)C2CC2)c(=O)o1 (stereo not shown) . 102
